test system: SK-OV-3; assay: NCI tumour cell line growth inhibition, 48 h
Activity calls are given as the source filed them. Cut-off read from the data, not from the text of the source: active = GI50 up to about 1.1 µM and inactive = higher.
Permitted responses: active, inactive

Field: example entries. Status: answers known.
Query: Answer briefly: the call reported for CC1(C)CCC[C@@]2(C)C1CCC1(C)C(CCc3ccoc3)/C(=C/OS(=O)(=O)O)CCC12 (stereo partly specified) in this assay.
Result: inactive

Query: Answer briefly: the call reported for CC(=O)C(=[N+]=[N-])C(=O)N(C)CCC#N in this assay.
Result: inactive

Query: Answer briefly: the call reported for NS(=O)(=O)c1ccc(NCc2cnc3ccccc3n2)cc1 in this assay.
Result: inactive

Query: Answer briefly: the call reported for Cc1nc2c(O)c3c(c(O)c2nc1C)C1C=CC3CC1 in this assay.
Result: inactive

Query: Answer briefly: the call reported for N=C(CSS(=O)(=O)O)NC1CC2CCC1C2 (stereo unspecified) in this assay.
Result: inactive

Next, consider the following compound.
Query: Answer briefly: the call reported for c1csc(-c2cscc2-c2ccsc2)c1 in this assay.
Result: inactive

* * *

tested on: K562; experiment: NCI tumour cell line growth inhibition, 48 h
Activity calls are given as the source filed them. Cut-off read from the data, not from the text of the source: active = GI50 up to about 1.1 µM and inactive = higher.
attribute-measured: GI50

Illustrative cases are given below, each with its answer.
Query: Give its GI50 value. Item: Cc1nnc(Nc2ccccc2)o1
Result: > 100 µM (inactive)

Query: Give its GI50 value. Item: COc1ccccc1NS(=O)(=O)c1ccc2ncn(NS(=O)(=O)c3ccc(Cl)cc3)c(=O)c2c1
Result: 3.36 µM (inactive)

Query: Give its GI50 value. Item: N=C1C(O)C2(I)c3ccccc3N3C(=N)C(O)C4c5ccccc5N1C4C32 (stereo unspecified)
Result: 26.4 µM (inactive)

Continuing:
Query: Give its GI50 value. Item: CC(=O)c1nc2ccccc2n1CC(=O)c1ccc(Cl)cc1
Result: 1.52 µM (inactive)

Query: Give its GI50 value. Item: Cc1cc2c(c(=O)o1)C1=S(SC(c3ccccc3)=C1)S2 (stereo unspecified)
Result: 38.4 µM (inactive)

Query: Give its GI50 value. Item: CN1CCN2c3ccccc3CC(C#N)(C#N)C2C1 (stereo unspecified)
Result: > 100 µM (inactive)

* * *

GI50, HCT-15, per-entry values.
Kindly answer with a numeric value in µM, unit omitted.

Illustrative cases are given below, each with its answer.
Query: API: value(readout= GI50, system= HCT-15, query= c1ccc2c(c1)ccn1ccc3c4ccccc4nc-3c21 )
Result: 0.305

Query: API: value(readout= GI50, system= HCT-15, query= CN(C)c1ccc(/N=N/c2ccc3[nH]cnc3c2)cc1 )
Result: 22.1

Query: API: value(readout= GI50, system= HCT-15, query= O=c1c2cc(S(=O)(=O)O)ccc2nc(COc2ccc(Oc3ccc(Cl)cc3Cl)cc2)n1-c1ccc(Oc2ccc(Cl)cc2)cc1Cl )
Result: 19.9

Continuing:
Query: API: value(readout= GI50, system= HCT-15, query= COC(=O)c1ccc(NCc2cc(O)ccc2O)cc1 )
Result: 10.2

Query: API: value(readout= GI50, system= HCT-15, query= Cc1cnc2sn(-c3ccc(Br)cc3)c(=O)c2c1 )
Result: 26.6

Query: API: value(readout= GI50, system= HCT-15, query= Cc1ccc(S(=O)(=O)SCc2ccccc2CSS(=O)(=O)c2ccc(C)cc2)cc1 )
Result: 19.5

Query: API: value(readout= GI50, system= HCT-15, query= Cc1cc(Cc2cc(C)cc(C(C)(C)C)c2O)c(O)c(Cc2cc(C)cc(C(C)(C)C)c2O)c1 )
Result: 2.24

Query: API: value(readout= GI50, system= HCT-15, query= CNC(=O)N1N[C@H](c2ccccc2)[C@@H]1c1ccccc1.OB(O)O )
Result: 24.3

Query: API: value(readout= GI50, system= HCT-15, query= O=C(O)CNC(=O)CO/N=C1/C(=C2/C(=O)Nc3ccccc32)Nc2ccccc21 )
Result: 51.8

Query: API: value(readout= GI50, system= HCT-15, query= Cc1cc(NCCCCCCNc2cc(C)nc3ccc(Cl)cc23)c2cc(Cl)ccc2n1 )
Result: 18

Query: API: value(readout= GI50, system= HCT-15, query= OCC1OC(n2cnc3c(SCc4ccccc4)ncnc32)C(O)C1O (configuration not stated) )
Result: 3.25

Query: API: value(readout= GI50, system= HCT-15, query= C=C1CC2OC2(C(=O)O[C@H]2CCC3[C@@H]4CCC5=CC(=O)CC[C@]5(C)C4CC[C@@]32C)C1=O (some centres not stated) )
Result: 3.68

* * *

Measured GI50, listed per entry for reference.
tested on: SK-MEL-2; experiment: NCI tumour cell line growth inhibition, 48 h
Active and inactive are the calls of the source. Cut-off read from the data, not from the text of the source: active = GI50 up to about 1.1 µM and inactive = higher.

Query: Give its GI50 value. Item: COC(=O)C1=COC(C)C2CN3CCc4c([nH]c5cc(OC)c(OC)cc45)C3CC12 (stereo unspecified)
Result: > 100 µM (inactive)

Query: Give its GI50 value. Item: CC(=O)N(CN1C(=O)CCC1C(=O)O)c1cccc(O)c1 (stereo unspecified)
Result: > 100 µM (inactive)

Continuing:
Query: Give its GI50 value. Item: Cc1cc(C)c(/N=N/c2c(O)c(S(=O)(=O)O)cc3cc(S(=O)(=O)O)ccc23)cc1C
Result: > 100 µM (inactive)

Query: Give its GI50 value. Item: O=C(CCc1cc(O)cc(O)c1)NCCCNC(=O)CCc1cc(O)cc(O)c1
Result: > 100 µM (inactive)

Query: Give its GI50 value. Item: CN1CCN(Cc2cc3c(nn2)-c2ccccc2C3=O)CC1
Result: > 100 µM (inactive)

Query: Give its GI50 value. Item: COC(=O)c1ccc(CCC2=CC(=O)C(Br)=CC2=O)cc1
Result: 17.1 µM (inactive)

Query: Give its GI50 value. Item: O=c1[nH]c(=O)n(COCCO)c2ccsc12
Result: > 100 µM (inactive)

Query: Give its GI50 value. Item: C[C@H](NC(=O)n1c2ccccc2c2ccccc21)C(=O)O
Result: > 100 µM (inactive)

Query: Give its GI50 value. Item: CC(=O)Oc1cc2c(cc1OC(C)=O)OCC(c1ccccc1)C2 (stereo unspecified)
Result: 27.4 µM (inactive)

Query: Give its GI50 value. Item: CCOC(=O)C(=O)Nc1ccccc1C(F)(F)F
Result: > 100 µM (inactive)

Query: Give its GI50 value. Item: CCCc1c(C(=O)OCC)[nH]c(C(=O)CCC(=O)c2[nH]c(C(=O)OCC)c(CCC)c2C(=O)OCC)c1C(=O)OCC
Result: 68.9 µM (inactive)

* * *

tested on: NCI-H23; assay: NCI tumour cell line growth inhibition, 48 h
Calls of active or inactive are those of the source. Rule as the data show it: active = GI50 up to about 1.1 µM and inactive = higher.
Permitted responses: 1.0 for active, 0.0 for inactive

Query: Answer briefly: the call reported for Nc1nc(CCC(=O)Nc2cccc(C(F)(F)F)c2)cc(-c2cccc3ccccc23)n1 in this assay.
Result: 0.0

Continuing:
Query: Answer briefly: the call reported for CC(C)(C)OC(=O)NCCCNC1(c2cc3ccccc3s2)CCCCC1 in this assay.
Result: 0.0

Query: Answer briefly: the call reported for CC1(C)CCC[C@@]2(C)C1CCC1(C)C(CCc3ccoc3)/C(=C/OS(=O)(=O)O)CCC12 (stereo not given in full) in this assay.
Result: 0.0

Query: Answer briefly: the call reported for Cc1ccc(S(=O)(=O)N2CCC(C(=O)O)(c3ccccc3)CC2)cc1 in this assay.
Result: 0.0

Query: Answer briefly: the call reported for COCC(/N=C\N1CCCc2ccccc2[C@@H]1CCCCl)C(C)(C)C (stereo not given in full) in this assay.
Result: 1.0

* * *

tested on: HT-29; experiment: NCI tumour cell line growth inhibition, 48 h
The source made the active and inactive calls. No stated cut-off is given here; in the data, active = GI50 up to about 1.1 µM and inactive = higher.
Permitted responses: active, inactive

Field: example entries. Status: answers known.
Query: Answer briefly: the call reported for COc1ccc2c(c1)C=C(C(C)(C)C)NS2(=O)=O in this assay.
Result: inactive

Query: Answer briefly: the call reported for CC(C(=O)N1C(=O)N(C(=O)C(C)C(O)c2ccccc2)C(c2ccccc2)C1c1ccccc1)C(O)c1ccccc1 (stereo not given) in this assay.
Result: inactive

Query: Answer briefly: the call reported for CC1C2CCC3C(O)C2(CC(O)C2(O)C1CC(O)C2(C)C)CC3(C)O (stereo not given) in this assay.
Result: inactive

Continuing:
Query: Answer briefly: the call reported for c1ccc2c(c1)ccn1ccc3c4ccccc4nc-3c21 in this assay.
Result: active

Query: Answer briefly: the call reported for Nc1ncnc2c1ncn2C1OC(CO)C2OC21 (stereo not given) in this assay.
Result: inactive

Query: Answer briefly: the call reported for CC(=O)N1CCc2c([nH]c3ccc(Br)cc23)C1c1ccccc1 (stereo not given) in this assay.
Result: inactive

* * *

test system: CCRF-CEM; experiment: NCI tumour cell line growth inhibition, 48 h
The source made the active and inactive calls. No stated cut-off is given here; in the data, active = GI50 up to about 1.1 µM and inactive = higher. Square brackets hold non-standard residues; d marks the D form. Peptide text beside a SMILES is read from it. * marks the point of attachment. AllylGly = C=CC[CH](N)C(=O)O; Boc = CC(C)(C)OC(=O)*; OtBu = CC(C)(C)O*
Permitted responses: active, inactive

Field: example entries. Status: answers known.
Query: Answer briefly: the call reported for N#C[C@H](c1nc2ccccc2[nH]1)c1nc2ccccc2nc1Cl in this assay.
Result: inactive

Query: Answer briefly: the call reported for CO[C@@H]1[C@H](OC(=O)NC(=O)CCl)CC[C@]2(CO2)[C@H]1[C@@]1(C)O[C@@H]1CC=C(C)C in this assay.
Result: active

Query: Answer briefly: the call reported for C=CCC(NC(=O)C(CC(=O)OC(C)(C)C)NC(=O)OC(C)(C)C)C(=O)OC (stereo not given) (Boc-Asp(OtBu)-[AllylGly]-OMe; configuration not given here) in this assay.
Result: inactive

Continuing:
Query: Answer briefly: the call reported for c1csc(-c2cscc2-c2ccsc2)c1 in this assay.
Result: inactive

Query: Answer briefly: the call reported for Cc1cc2c(c(=O)o1)C1=S(SC(c3ccccc3)=C1)S2 (stereo not given) in this assay.
Result: inactive

Query: Answer briefly: the call reported for C=CC1(CBr)CCC(C(C)(C)Br)O1 (stereo not given) in this assay.
Result: inactive

Query: Answer briefly: the call reported for COc1ccc(S(=O)(=O)NC(CCC(=O)NC(N)=O)C(=O)NC(N)=O)cc1 (stereo not given) in this assay.
Result: inactive

Query: Answer briefly: the call reported for CC(=O)OCC1OC(n2cc(F)c(=O)[nH]c2=O)C(NC(=O)N(CCCl)N=O)C(OC(C)=O)C1OC(C)=O (stereo not given) in this assay.
Result: inactive

Query: Answer briefly: the call reported for CC(=O)N(C)CCc1c[nH]c2ccccc12 in this assay.
Result: inactive

Query: Answer briefly: the call reported for COc1ccc2nccc(C3OC(=O)N4CCC(=O)CC34)c2c1 (stereo not given) in this assay.
Result: inactive

Query: Answer briefly: the call reported for NC1=NN(c2ccccc2)C(=O)C1/C(=N\NC(=O)c1cc2ccccc2cc1O)C(=O)Nc1ccc(Cl)c(Cl)c1 (stereo not given) in this assay.
Result: inactive

Query: Answer briefly: the call reported for BrCCC[P+](c1ccccc1)(c1ccccc1)c1ccccc1 in this assay.
Result: inactive

Query: Answer briefly: the call reported for COc1cc(OC)cc(-c2cc(O)c3cc4c(cc3n2)OCO4)c1 in this assay.
Result: active

Query: Answer briefly: the call reported for CCc1c(CNC2=NCCN2)c(CC)c(CNC2=NCCN2)c(CC)c1CNC1=NCCN1 in this assay.
Result: inactive

Query: Answer briefly: the call reported for Cc1cc(Cc2cc(C)cc(C(C)(C)C)c2O)c(O)c(Cc2cc(C)cc(C(C)(C)C)c2O)c1 in this assay.
Result: inactive

Query: Answer briefly: the call reported for CCCCCCNC(=O)c1cc(NCc2cc(OC)ccc2OC)ccc1O in this assay.
Result: inactive

Query: Answer briefly: the call reported for Oc1ccc(/C=C/c2ccc3cccc(O)c3n2)cc1O in this assay.
Result: active

Query: Answer briefly: the call reported for COc1cccc(-c2nnc3c(-c4ccccc4)nc4ccccc4n23)c1 in this assay.
Result: inactive

Query: Answer briefly: the call reported for O=C(NC(=O)c1cn(CCN(CCO)C(=O)NCCCCCCNC(=O)N(CCO)CCn2cc(C(=O)NC(=O)OCc3ccccc3)c(=O)[nH]c2=O)c(=O)[nH]c1=O)OCc1ccccc1 in this assay.
Result: inactive

Query: Answer briefly: the call reported for CC(C)=C1CCC(CN2CCCC2)C1=O (stereo not given) in this assay.
Result: inactive
